Tested on: C2BBe1;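 also: growth inhibition of C2BBe1 cells, read out through a viability assay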
assay_info: cells
Type: functional, cell-based, Homo sapiens
measurement_parameters: Homo sapiens, C2BBe1
Description: SANGER: Inhibition of human C2BBe1 cell growth in a cell viability assay.
Catalogue of IC50 values

compound	IC50
C=C1C(=O)O[C@@H]2C3O[C@]3(C)CC/C=C(\C)CC[C@@H]12 (some centres undefined)	> 5 µM
CC(=O)O[C@@]12CO[C@@H]1C[C@H](O)[C@@]1(C)C(=O)[C@H](O)C3=C(C)[C@@H](OC(=O)[C@H](O)[C@@H](NC(=O)OC(C)(C)C)c4ccccc4)C[C@@](O)([C@@H](OC(=O)c4ccccc4)[C@H]21)C3(C)C [DOCETAXEL]	0.00182 µM
CCOc1nc(NC(=O)Cc2cc(OC)ccc2OC)cc(N)c1C#N	> 10 µM
O=C(/C=C/c1ccccc1)NC(NC(=S)Nc1cccc2cccnc12)C(Cl)(Cl)Cl (centres undefined) [SALUBRINAL]	> 16 µM
C=CCc1cccc(/C=N/NC(=O)CN2CCN(Cc3ccccc3)CC2)c1O [PAC-1]	> 2.56 µM
Cn1cncc1[C@@](N)(c1ccc(Cl)cc1)c1ccc2c(c1)c(-c1cccc(Cl)c1)cc(=O)n2C [TIPIFARNIB]	> 16 µM
C[C@]1(O)C[C@@H](c2nc(-c3ccc4ccc(-c5ccccc5)nc4c3)c3c(N)nccn32)C1 [LINSITINIB]	> 2.56 µM
CCC1=C[C@@H]2CN(C1)Cc1c([nH]c3ccccc13)[C@@](C(=O)OC)(c1cc3c(cc1OC)N(C)[C@H]1[C@@](O)(C(=O)OC)[C@H](OC(C)=O)[C@]4(CC)C=CCN5CC[C@]31[C@@H]54)C2 [VINORELBINE]	> 0.064 µM
CC1=C2C[C@H]3[C@@H](CC=C4C[C@@H](O)CC[C@@]43C)[C@@H]2CC[C@]12O[C@@H]1C[C@H](C)CN[C@H]1[C@H]2C [CYCLOPAMINE]	> 16 µM
